B1: F1*; the commonest letter at each place (parent)
chain: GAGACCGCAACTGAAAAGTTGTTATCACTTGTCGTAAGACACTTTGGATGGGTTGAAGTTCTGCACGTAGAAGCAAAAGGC

- Variants of: B1
- Protocol Description: fraction ligated after 30 min (ligated reads / total reads); higher = more ligase activity
- Measurement Conditions: with F1*sub RNA substrate (template-directed ligation), 42 °C
Please enter t where fraction ligated is greater than or equal to 0.8, and f where it is lower.

Answered examples (3):
{"Input Sequence": "GAGACCGCAACTGAAAAGTTGTTATGACTCGTCGTAAGACACTTTGGATGGGTTGAAGTTCTGCACGTAGAAGCAAAAGGC [C26G T30C]", "Class Label": "f"}
{"Input Sequence": "GAGACCGCAACTGAAAAGTTGTTATCTCTGGTCGTAAGACACTTTGGATGGGTTGAAGTTCTGCACGTAGAAGCAAAAGGC [A27T T30G]", "Class Label": "t"}
{"Input Sequence": "GAGACCGCAACTGAAAAGTTGTTATCACTTGTCGTAAGGCACTTTGGATAGGTTGAAGTTCTGCACGTAGAAGCAAAAGGC [A39G G50A]", "Class Label": "f"}

In: Determine whether measured fraction ligated meets or exceeds 0.8 for GAGACCGCAACTGAAAAGTTGTTATCACTTGTCGAAAGACACTTTGGATGGGTTAAAGTTCTGCACGTAGAAGCAAAAGGC [T35A G55A]
Out: t

In: Determine whether measured fraction ligated meets or exceeds 0.8 for GAGACCGCAACTGAAAAGTTGTTACCACTTGTCGTAAGAAACTTTGGATGGGTTGAAGTTCTGCACGTAGAAGCAAAAGGC [T25C C40A]
Out: f

In: Determine whether measured fraction ligated meets or exceeds 0.8 for GAGACCGCAACTGAAAAGTTGTTAAAACTTGTCGTAAGACACTTTGGATGGGTTGAAGTTCTGCACGTAGAAGCAAAAGGC [T25A C26A]
Out: f
